Every entry's value here was drawn from ChEMBL document CHEMBL2010769.

Tested on: Human alphaherpesvirus 3
Assay Explanation: Antiviral activity against VZV infected in HFF assessed as reduction in virus induced cytopathic effect
Format: functional, organism-based
pEC50: −log10 of the molar value.
Property: pEC50

For Human alphaherpesvirus 3, give pEC50 of the listed molecule: Nc1ncc2ncn(/C=C3/CC3(CO)CO)c2n1
< 3.52

====

Assay Explanation: Cytotoxicity against HFF
Type: cell-based
Condition Details: human, HFF cells
Property: CC50

Give the reported CC50 for this molecule. Nc1ncc2ncn(/C=C3/CC3(CO)CO)c2n1
> 100 µM

====

Assay Explanation: Cytotoxicity against human Akata cells
Type: cell-based
Property: CC50 (µM)
Report the figure in µM without appending any unit label.

Give the reported CC50 for this compound. Nc1ncc2ncn(/C=C3/CC3(CO)CO)c2n1
71
